Origin of values: BigSolDB 2.1

Details: in methanol, 318.15 K
QUANTITY: solubility (mole fraction)
Answer as a number with no unit attached.

Exam item: Form field: reported solubility (mole fraction) of "O=C(/C=C/c1ccc(O)c(O)c1)O[C@H](Cc1ccc(O)c(O)c1)C(=O)O"
Marked response: 0.494

====

Conditions: in methanol, 293.15 K
QUANTITY: solubility (mole fraction)
Answer field: number only, no words.

Exam item: Requested read-out: solubility (mole fraction). Entry: "O=C(/C=C/c1ccc(O)c(O)c1)O[C@H](Cc1ccc(O)c(O)c1)C(=O)O"
Marked response: 0.28

====

Conditions: in ethanol, 318.15 K
QUANTITY: solubility (mole fraction)
// response body must contain only the number

Exam item: Entry under review: "O=C(/C=C/c1ccc(O)c(O)c1)O[C@H](Cc1ccc(O)c(O)c1)C(=O)O" . Reported solubility (mole fraction)?
Marked response: 0.455

====

Details: in water, 298.15 K
QUANTITY: solubility (mole fraction)

Exam item: Query (molecule): "O=C(/C=C/c1ccc(O)c(O)c1)O[C@H](Cc1ccc(O)c(O)c1)C(=O)O" ; field requested: solubility (mole fraction)
Marked response: 0.0151

====

Settings: in ethanol, 313.15 K
QUANTITY: solubility (mole fraction)

Exam item: Request the reported solubility (mole fraction) associated with "O=C(/C=C/c1ccc(O)c(O)c1)O[C@H](Cc1ccc(O)c(O)c1)C(=O)O"
Marked response: 0.408

====

Settings: in ethanol, 308.15 K
QUANTITY: solubility (mole fraction)
Would you mind answering with just the numeric figure?

Exam item: Could you share which solubility (mole fraction) value was measured for "O=C(/C=C/c1ccc(O)c(O)c1)O[C@H](Cc1ccc(O)c(O)c1)C(=O)O" ?
Marked response: 0.366

====

Conditions: in methanol, 298.15 K
QUANTITY: solubility (mole fraction)
Returns: the value as a bare number; no unit string appended.

Exam item: # input molecule: "O=C(/C=C/c1ccc(O)c(O)c1)O[C@H](Cc1ccc(O)c(O)c1)C(=O)O" ; wanted: its solubility (mole fraction)
Marked response: 0.314

====

Details: in water, 318.15 K
QUANTITY: solubility (mole fraction)
Give the value as a plain number.

Exam item: Look up solubility (mole fraction) for this molecule: "O=C(/C=C/c1ccc(O)c(O)c1)O[C@H](Cc1ccc(O)c(O)c1)C(=O)O"
Marked response: 0.0248

====

Conditions: in methanol, 313.15 K
QUANTITY: solubility (mole fraction)
Write the number on its own, no unit after it.

Exam item: Item under review: "O=C(/C=C/c1ccc(O)c(O)c1)O[C@H](Cc1ccc(O)c(O)c1)C(=O)O" . Reported solubility (mole fraction)?
Marked response: 0.443

====

Conditions: in water, 293.15 K
QUANTITY: solubility (mole fraction)
Just the number, please, no unit attached.

Exam item: Which solubility (mole fraction) reading was recorded for the molecule "O=C(/C=C/c1ccc(O)c(O)c1)O[C@H](Cc1ccc(O)c(O)c1)C(=O)O" ?
Marked response: 0.0135
